test: NCI Yeast Anticancer Drug Screen. Data for the rad50 strain (AID 155);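 also: 0% = growth of vehicle-only cultures of the same strain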; settings: S. cerevisiae rad50 strain growth inhibition; at 11.0 µM; hits give high values
About 79,000 compounds went through this panel and 15% of them were active in at least one assay; those are over-represented in the sample as a whole.
Label 1 for high-side growth inhibition (at or above 30%) and 0 for low-side growth inhibition (below it).

Worked examples, 4 molecules total:
• CCC1SC(=S)N(c2ccc(Cl)cc2)C1=O (stereo unspecified) = 0
• c1cc(Nc2ccc3c(c2)OCO3)c2cc(C3CCCCC3)ccc2n1 = 0
• OC1C#CCSCC#C/C=C\1 (stereo unspecified) = 1
• C[n+]1c(-c2ccc(NC(=O)c3ccc(C(=O)Nc4ccc(-c5cn6ccccc6[n+]5C)cc4)cc3)cc2)cn2ccccc21 = 0

IN: I'd appreciate it if you could say whether O=C(Nc1ccn(C2CC(O)C(COC(c3ccccc3)(c3ccccc3)c3ccccc3)O2)c(=O)n1)c1ccccc1 (stereo unspecified) has growth inhibition at least equal to 30%.
OUT: 1

IN: Test whether the molecule COC1=C(N=[N+]=[N-])C(=O)c2ncccc2C1=O records growth inhibition of 30% or higher.
OUT: 1
